The values you see were collected from patent EP0406111A1.

# SYSTEM TESTED: capture de (³H)dopamine par les synaptosomes striataux de rat (Rattus norvegicus, UniProt P23977)
# Construct: Les culots résultants P2 contenant les synaptosomes bruts sont ensuite utilisés sans purification supplémentaire; from tissue; host or cells: Wistar rat striatum, crude synaptosomes (P2 pellet)
# Sequence (P23977 whole entry): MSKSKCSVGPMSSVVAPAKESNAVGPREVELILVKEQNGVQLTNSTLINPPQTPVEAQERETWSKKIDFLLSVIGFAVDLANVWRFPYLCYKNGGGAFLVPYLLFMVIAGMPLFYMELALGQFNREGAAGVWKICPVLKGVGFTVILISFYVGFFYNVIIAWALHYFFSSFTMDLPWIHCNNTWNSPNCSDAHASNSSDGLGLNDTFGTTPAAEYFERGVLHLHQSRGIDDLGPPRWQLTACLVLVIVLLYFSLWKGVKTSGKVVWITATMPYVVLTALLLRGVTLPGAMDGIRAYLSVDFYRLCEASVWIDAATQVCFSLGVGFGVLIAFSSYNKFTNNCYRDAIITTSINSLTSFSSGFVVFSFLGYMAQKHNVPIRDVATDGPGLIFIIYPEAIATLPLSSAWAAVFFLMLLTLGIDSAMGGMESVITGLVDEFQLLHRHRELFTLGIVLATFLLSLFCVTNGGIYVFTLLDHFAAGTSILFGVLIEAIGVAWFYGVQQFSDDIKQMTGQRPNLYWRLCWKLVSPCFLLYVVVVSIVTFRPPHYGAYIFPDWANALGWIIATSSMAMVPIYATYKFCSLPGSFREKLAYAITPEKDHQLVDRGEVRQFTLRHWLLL
# ASSAY PROCEDURE: biochemical
# ASSAY SETUP: rat striatal synaptosomes, 5 nM (3H)DA, 5 min at 30°C; read-out: [3H] DA IC50
Mark Fulfilled only for IC50 values smaller than 60 nM; exact matches and larger values are Not fulfilled.

1. c1ccc2c(C3(N4CCCCC4)CCCCC3)cccc2c1	Not fulfilled
2. CC1CCCN(C2(c3cc4ccccc4s3)CCCCC2)C1 (centres unmarked)	Fulfilled
3. CCCN(CCC)C1(c2cc3ccccc3s2)CCCCC1	Fulfilled
4. ClCC1CCCN(C2(c3cc4ccccc4s3)CCCCC2)C1 (centres unmarked)	Not fulfilled
5. c1ccc2oc(C3(N4CCCCC4)CCCCC3)cc2c1	Fulfilled
6. BrCC1CCCN(C2(c3cc4ccccc4s3)CCCCC2)C1 (centres unmarked)	Fulfilled
7. C[C@H]1CC[C@](c2cc3ccccc3s2)(N2CCCCC2)CC1	Fulfilled

Query: Please indicate whether the reported IC50 of `CC1CCN(C2(c3cc4ccccc4s3)CCCCC2)CC1` is strictly below 60 nM.
Reply: Fulfilled
